biological target: PI3Kα (Homo sapiens, UniProt P42336); experiment: PI3Kα isoform profiling (PI3Kδ protocol); conditions: 10 dose IC50
Sequence (P42336 whole entry, canonical isoform): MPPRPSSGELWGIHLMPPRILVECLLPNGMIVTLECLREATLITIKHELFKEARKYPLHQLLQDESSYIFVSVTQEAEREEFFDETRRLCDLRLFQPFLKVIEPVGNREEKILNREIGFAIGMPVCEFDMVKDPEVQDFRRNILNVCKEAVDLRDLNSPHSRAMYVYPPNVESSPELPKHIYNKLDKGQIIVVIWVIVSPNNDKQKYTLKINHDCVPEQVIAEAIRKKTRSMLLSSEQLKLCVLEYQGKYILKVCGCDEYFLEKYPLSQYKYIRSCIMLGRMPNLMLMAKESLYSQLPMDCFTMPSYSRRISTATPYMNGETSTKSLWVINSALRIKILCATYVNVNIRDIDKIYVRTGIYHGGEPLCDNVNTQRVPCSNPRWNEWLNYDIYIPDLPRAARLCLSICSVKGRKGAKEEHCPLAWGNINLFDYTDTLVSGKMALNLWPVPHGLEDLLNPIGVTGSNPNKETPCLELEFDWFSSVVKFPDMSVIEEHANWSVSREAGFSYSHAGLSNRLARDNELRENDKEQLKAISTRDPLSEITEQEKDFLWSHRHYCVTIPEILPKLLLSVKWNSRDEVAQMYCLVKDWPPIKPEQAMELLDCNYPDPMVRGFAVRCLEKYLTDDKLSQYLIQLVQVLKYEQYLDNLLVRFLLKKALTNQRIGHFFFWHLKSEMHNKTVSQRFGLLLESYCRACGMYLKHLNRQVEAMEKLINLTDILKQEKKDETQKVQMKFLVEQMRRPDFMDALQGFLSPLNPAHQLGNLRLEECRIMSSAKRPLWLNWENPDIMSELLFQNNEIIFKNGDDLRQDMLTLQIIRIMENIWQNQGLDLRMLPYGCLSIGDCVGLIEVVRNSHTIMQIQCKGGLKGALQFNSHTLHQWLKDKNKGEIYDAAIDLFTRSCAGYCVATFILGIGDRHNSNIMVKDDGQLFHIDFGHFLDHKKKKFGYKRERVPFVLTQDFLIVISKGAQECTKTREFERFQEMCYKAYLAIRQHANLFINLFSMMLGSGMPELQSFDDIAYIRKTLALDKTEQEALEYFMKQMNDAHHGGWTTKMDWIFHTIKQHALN
Sequence (P27986 whole entry partner, canonical isoform): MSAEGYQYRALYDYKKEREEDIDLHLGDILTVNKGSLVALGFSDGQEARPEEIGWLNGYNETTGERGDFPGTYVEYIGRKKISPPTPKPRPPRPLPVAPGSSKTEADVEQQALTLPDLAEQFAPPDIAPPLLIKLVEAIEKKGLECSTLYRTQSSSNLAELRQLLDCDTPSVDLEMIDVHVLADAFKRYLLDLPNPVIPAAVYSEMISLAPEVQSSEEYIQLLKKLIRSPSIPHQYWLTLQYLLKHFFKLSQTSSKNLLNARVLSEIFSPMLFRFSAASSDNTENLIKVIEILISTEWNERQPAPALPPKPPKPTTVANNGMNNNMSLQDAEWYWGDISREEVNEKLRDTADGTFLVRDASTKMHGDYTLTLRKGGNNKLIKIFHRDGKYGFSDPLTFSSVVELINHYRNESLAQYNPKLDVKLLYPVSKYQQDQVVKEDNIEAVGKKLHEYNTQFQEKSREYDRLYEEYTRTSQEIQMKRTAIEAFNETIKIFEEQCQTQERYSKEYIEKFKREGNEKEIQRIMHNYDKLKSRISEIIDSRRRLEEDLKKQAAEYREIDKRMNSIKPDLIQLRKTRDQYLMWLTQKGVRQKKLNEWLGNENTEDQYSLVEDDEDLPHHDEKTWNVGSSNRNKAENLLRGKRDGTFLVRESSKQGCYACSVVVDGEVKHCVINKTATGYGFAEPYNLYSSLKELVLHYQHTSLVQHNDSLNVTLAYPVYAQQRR
Reported log10 IC50 values follow for various compounds
resultType: log10 IC50 (log10 of the value in nM)

Nc1ncnc2c1c(-c1cc(O)c(Cl)c(Cl)c1)cn2C1Cc2ccccc2C1: 1.75
Nc1ncnc2c1c(-c1ccc(F)c(O)c1)nn2C1CCc2ccccc2C1 (single isomer, unassigned) [Compound No. 26a]: 2.16
Nc1ncnc2c1c(-c1ccc(F)c(O)c1)nn2C1CCc2ccccc2C1 (single isomer, unassigned) [Compound No. 26b]: 2.21
COc1cc(-c2nn(C3Cc4ccccc4C3)c3ncnc(N)c23)ccc1C: 2.70
Nc1ncnc2c1c(-c1ccc(Br)c(O)c1)nn2C1Cc2ccccc2C1: 1.24
C=CC(=O)N1CC(n2nc(-c3cc(O)cc(F)c3)c3c(N)ncnc32)Cc2cc(C)ccc21 (single isomer, unassigned) [31b]: 2.40
Nc1ncnc2c1c(-c1ccc(F)c(O)c1)nn2C1Cc2ccccc2C1: 1.86

---

Target: PI3Kγ (Homo sapiens)
Construct: purchased Reaction Biology Corporation
Sequence (P48736 whole entry): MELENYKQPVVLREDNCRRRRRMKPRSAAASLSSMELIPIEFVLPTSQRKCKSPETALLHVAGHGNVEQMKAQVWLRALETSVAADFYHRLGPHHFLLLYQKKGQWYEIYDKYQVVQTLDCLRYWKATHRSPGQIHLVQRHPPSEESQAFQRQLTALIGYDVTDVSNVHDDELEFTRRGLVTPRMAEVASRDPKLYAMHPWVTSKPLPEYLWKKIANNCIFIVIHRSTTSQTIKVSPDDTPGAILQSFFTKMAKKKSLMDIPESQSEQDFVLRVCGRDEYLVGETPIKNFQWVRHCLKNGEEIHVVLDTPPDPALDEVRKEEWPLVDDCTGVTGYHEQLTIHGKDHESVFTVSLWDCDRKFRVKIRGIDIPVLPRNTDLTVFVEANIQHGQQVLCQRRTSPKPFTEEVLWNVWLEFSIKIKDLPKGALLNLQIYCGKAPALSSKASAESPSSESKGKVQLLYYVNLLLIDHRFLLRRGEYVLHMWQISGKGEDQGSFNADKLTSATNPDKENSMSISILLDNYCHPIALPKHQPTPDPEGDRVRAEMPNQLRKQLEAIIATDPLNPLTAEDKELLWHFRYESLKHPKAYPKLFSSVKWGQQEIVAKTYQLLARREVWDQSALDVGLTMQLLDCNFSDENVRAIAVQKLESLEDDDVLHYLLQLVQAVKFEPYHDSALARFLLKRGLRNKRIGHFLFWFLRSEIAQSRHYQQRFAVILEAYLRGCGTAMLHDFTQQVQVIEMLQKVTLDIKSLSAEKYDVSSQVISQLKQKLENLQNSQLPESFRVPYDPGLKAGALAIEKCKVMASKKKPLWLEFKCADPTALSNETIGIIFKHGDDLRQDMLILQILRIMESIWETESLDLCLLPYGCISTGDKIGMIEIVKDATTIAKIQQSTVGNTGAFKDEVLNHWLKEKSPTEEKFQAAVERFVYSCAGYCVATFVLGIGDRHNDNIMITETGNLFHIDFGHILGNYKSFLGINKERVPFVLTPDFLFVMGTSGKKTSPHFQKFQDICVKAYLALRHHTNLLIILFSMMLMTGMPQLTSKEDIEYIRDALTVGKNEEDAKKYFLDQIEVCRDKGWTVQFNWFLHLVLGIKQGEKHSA
Assay: PI3Kγ isoform profiling (PI3Kδ protocol)
Type: biochemical
Details: 0.3 μM compound
From the text: PI3Kδ assay: The PIP3 product is detected by displacement of biotin-PIP3 from an energy transfer complex consisting of Europium labeled anti-GST monoclonal antibody, a GST-tagged pleckstrin homology (PH) domain, biotinylated PIP3 and Streptavidin-Allophycocyanin (APC). Excitation of Europium in the complex results in an energy transfer to the APC and a fluorescent emission at 665 nm. […]
resultType: PI3Kγ @ 0.3 μM (% Inh)

Nc1ncnc2c1c(-c1ccc(Cl)c(O)c1)nn2C1Cc2ccccc2C1: 62.17 % Inh
Nc1ncnc2c1c(-c1ccc(Cl)c(O)c1F)nn2C1Cc2ccccc2C1: 57.52 % Inh
Nc1ncnc2c1c(-c1cc(O)c(Cl)c(Cl)c1)cn2C1Cc2ccccc2C1: 45.49 % Inh
Nc1ncnc2c1c(-c1ccc(Cl)c(O)c1)cn2C1Cc2ccccc2C1: 72.89 % Inh
COc1cc(-c2nn(C3Cc4ccccc4C3)c3ncnc(N)c23)ccc1C: 30.41 % Inh
C=CC(=O)N1CC(n2nc(-c3cc(O)cc(F)c3)c3c(N)ncnc32)Cc2cc(C)ccc21 (single isomer, unassigned) [31b]: 14.76 % Inh
Nc1ncnc2c1c(-c1ccc(F)c(O)c1)nn2C1CCc2ccccc2C1 (racemic): 38.75 % Inh
Nc1ncnc2c1c(-c1cc(O)cc(F)c1)nn2C1Cc2ccc(F)cc2C1 (stereo not drawn): 30.85 % Inh
Nc1ncnc2c1c(-c1cc(O)c(F)c(Cl)c1)cn2C1Cc2ccccc2C1: 47.05 % Inh
COc1ccc(-c2nn(C3Cc4ccccc4C3)c3ncnc(N)c23)cc1O: 51.6 % Inh
Nc1ncnc2c1c(-c1ccc3cc[nH]c3c1)nn2C1CCc2ccccc2C1 (racemic): 19.7 % Inh
Nc1ncnc2c1c(-c1cc(O)cc(F)c1)cn2C1Cc2ccccc2C1: 33.44 % Inh
Nc1ncnc2c1c(-c1cc(F)c3c(c1)NCCO3)nn2C1Cc2ccccc2C1: 55.61 % Inh
Nc1ncnc2c1c(-c1cc(O)c(F)c(F)c1)cn2C1Cc2ccccc2C1: 57.6 % Inh
N#Cc1cc(-c2cn(C3Cc4ccccc4C3)c3ncnc(N)c23)cc(O)c1F: 59.21 % Inh
Nc1ncnc2c1c(-c1cc(O)c(F)c(C(F)(F)F)c1)nn2C1Cc2ccccc2C1: 57.81 % Inh
Nc1ncnc2c1c(-c1cc(O)c(F)c(F)c1)nn2C1Cc2ccccc2C1: 68.03 % Inh
C=CC(=O)N1CC(n2nc(-c3cc(O)cc(F)c3)c3c(N)ncnc32)Cc2cc(C)ccc21 (stereo not drawn) [compound 31]: 0.74 % Inh
